# Protocol: Antileukemic activity against human AML03 cells after 24 hrs by annexin V/7-AAD staining-based flow cytometric analysis
# Type: functional, cell-based

Molecule	EC50 / nM
C=C1C(=O)O[C@H]2[C@H]1CC/C(COC(=O)OCCCCOC(=O)OC/C1=C/CC[C@@]3(C)O[C@H]3[C@H]3OC(=O)C(=C)[C@@H]3CC1)=C\CC[C@@]1(C)O[C@@H]21	860
C=C1C(=O)O[C@H]2[C@H]1CC/C(COC(=O)NCCCCCCCCCNC(=O)OC/C1=C/CC[C@@]3(C)O[C@H]3[C@H]3OC(=O)C(=C)[C@@H]3CC1)=C\CC[C@@]1(C)O[C@@H]21	2400
C=C1C(=O)O[C@H]2[C@H]1CC/C(COC(=O)NCCCCNC(=O)OC/C1=C/CC[C@@]3(C)O[C@H]3[C@H]3OC(=O)C(=C)[C@@H]3CC1)=C\CC[C@@]1(C)O[C@@H]21	7300
C=C1C(=O)O[C@H]2[C@H]1CC/C(COC(=O)NCCCCCCCCNC(=O)OC/C1=C/CC[C@@]3(C)O[C@H]3[C@H]3OC(=O)C(=C)[C@@H]3CC1)=C\CC[C@@]1(C)O[C@@H]21	2900
C=C1C(=O)O[C@H]2[C@H]1CC/C(COC(=O)NCCCCCCNC(=O)OC/C1=C/CC[C@@]3(C)O[C@H]3[C@H]3OC(=O)C(=C)[C@@H]3CC1)=C\CC[C@@]1(C)O[C@@H]21	3500
C=C1C(=O)O[C@@H]2C3O[C@]3(C)CC/C=C(\C)CC[C@@H]12 (some centres undefined)	4700
C=C1C(=O)O[C@H]2[C@H]1CC/C(COC(=O)OCCCCCOC(=O)OC/C1=C/CC[C@@]3(C)O[C@H]3[C@H]3OC(=O)C(=C)[C@@H]3CC1)=C\CC[C@@]1(C)O[C@@H]21	1400
C=C1C(=O)O[C@H]2[C@H]1CC/C(COC(=O)NCCCCCCCNC(=O)OC/C1=C/CC[C@@]3(C)O[C@H]3[C@H]3OC(=O)C(=C)[C@@H]3CC1)=C\CC[C@@]1(C)O[C@@H]21	5700
C=C1C(=O)O[C@H]2[C@H]1CC/C(COC(=O)NCCCCCCCCCCNC(=O)OC/C1=C/CC[C@@]3(C)O[C@H]3[C@H]3OC(=O)C(=C)[C@@H]3CC1)=C\CC[C@@]1(C)O[C@@H]21	2900
